biological target: Serine/threonine-protein kinase pim-1 (Homo sapiens)
Sequence (P11309 whole entry): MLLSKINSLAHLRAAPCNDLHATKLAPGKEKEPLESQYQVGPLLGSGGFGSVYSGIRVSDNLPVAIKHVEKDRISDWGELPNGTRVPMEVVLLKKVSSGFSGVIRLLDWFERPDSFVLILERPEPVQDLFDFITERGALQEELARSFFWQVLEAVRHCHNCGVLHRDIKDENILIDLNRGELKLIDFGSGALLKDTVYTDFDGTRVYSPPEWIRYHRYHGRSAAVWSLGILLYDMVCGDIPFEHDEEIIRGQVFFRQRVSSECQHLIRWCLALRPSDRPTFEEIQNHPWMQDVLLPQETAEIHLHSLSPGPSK
pIC50: −log10 of the molar value.

molecule | pIC50
CCC(CO)Nc1ccc2ncc(-c3ccc(F)c(Cl)c3)n2n1 (stereo unspecified) | 7.40

* * *

biological target: Serine/threonine-protein kinase pim-2 (Homo sapiens, UniProt Q9P1W9)
Sequence (Q9P1W9 whole entry): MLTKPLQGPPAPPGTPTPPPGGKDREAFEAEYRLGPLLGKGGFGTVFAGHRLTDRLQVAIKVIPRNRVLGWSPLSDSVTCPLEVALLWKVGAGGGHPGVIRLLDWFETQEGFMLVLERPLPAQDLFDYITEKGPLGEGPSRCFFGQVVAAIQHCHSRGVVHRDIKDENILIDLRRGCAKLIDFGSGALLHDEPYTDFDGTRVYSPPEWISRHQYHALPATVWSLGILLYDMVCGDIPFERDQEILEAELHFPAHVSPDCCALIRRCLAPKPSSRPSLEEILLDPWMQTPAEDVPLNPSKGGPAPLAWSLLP
pIC50: −log10 of the molar value.

compound | pIC50
CCC(CO)Nc1ccc2ncc(-c3ccc(F)c(Cl)c3)n2n1 (stereo unspecified) | 5.60

Taken from BindingDB's records for doi:10.1158/0008-5472.CAN-07-0320.
